Where do the numbers come from? From PubChem BioAssay AID2060501.

Tested on: 282377-053-R-J1-PDC complex spheroids, viability
Experiment: Anticancer human tumor 282377-053-R-J1-PDC patient-derived colon adenocarcinoma cell line growth inhibition [GQUAD]
Conditions: second compound 3.16 µM; first compound 0.00999 µM; stronger effect = lower value
experimental-endpoint: viability, T/C (%)
Field: numeric (%). Do not append units.

Past entries and their recorded results:
compound: Cn1ncnc1[C@H]1c2n[nH]c(=O)c3cc(F)cc(c23)N[C@@H]1c1ccc(F)cc1 + Cc1cnc(CNC(=O)c2c(=O)c3ccc(N4CCCN(C)CC4)nc3n3c2sc2ccccc23)cn1
viability, T/C / %: 51.5
--
compound: CC[C@@]1(O)C(=O)OCc2c1cc1n(c2=O)Cc2cc3c(CN(C)C)c(O)ccc3nc2-1 + Cc1[nH]c2ccc(F)cc2c1-c1nc2c3cccnc3c3ncccc3c2[nH]1
viability, T/C / %: 81.4
--
compound: CCc1c2c(nc3ccc(O)cc13)-c1cc3c(c(=O)n1C2)COC(=O)[C@]3(O)CC + Cc1cnc(CNC(=O)c2c(=O)c3ccc(N4CCCN(C)CC4)nc3n3c2sc2ccccc23)cn1
viability, T/C / %: 37.5

Now take the following compound into account.
The compound identified as Cn1ncnc1[C@H]1c2n[nH]c(=O)c3cc(F)cc(c23)N[C@@H]1c1ccc(F)cc1 + CN(C)c1ccc(Nc2c3ccc(NC(=O)CCN4CCCC4)cc3nc3cc(NC(=O)CCN4CCCC4)ccc23)cc1 registered its viability, T/C at 101

====

Test system: 282377-053-R-J1-PDC complex spheroids, viability
Test: Anticancer human tumor 282377-053-R-J1-PDC cell line growth inhibition [GQUAD];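 further: spheroids exposed to compounds for 7 days before readout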;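 on viability, T/C: percent of vehicle DMSO control viability with 100% = untreated-like growth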
Details: second compound 1 µM; first compound 3.16 µM; stronger effect = lower value
experimental-endpoint: viability, T/C (%)
Field: numeric (%). Do not append units.

Past entries and their recorded results:
compound: CCCS(=O)(=O)Nc1ccc(F)c(C(=O)c2c[nH]c3ncc(-c4ccc(Cl)cc4)cc23)c1F + Cc1cnc(CNC(=O)c2c(=O)c3ccc(N4CCCN(C)CC4)nc3n3c2sc2ccccc23)cn1
viability, T/C (%): 34.4

compound: COc1cccc2c1C(=O)c1c(O)c3c(c(O)c1C2=O)CC(O)(C(=O)CO)CC3OC1CC(N)C(O)C(C)O1 (stereo not drawn) + Cc1cnc(CNC(=O)c2c(=O)c3ccc(N4CCCN(C)CC4)nc3n3c2sc2ccccc23)cn1
viability, T/C (%): 8.25

The compound identified as COc1ncnc(C2CC2)c1-c1ncc2cnn(Cc3ccc(-c4nc(C(F)(F)F)cn4C(C)C)cc3)c2n1 + CN(C)c1ccc(Nc2c3ccc(NC(=O)CCN4CCCC4)cc3nc3cc(NC(=O)CCN4CCCC4)ccc23)cc1 registered its viability, T/C at 79.6

====

Tested on: 282377-053-R-J1-PDC complex spheroids, viability
Test: Anticancer human tumor 282377-053-R-J1-PDC cell line growth inhibition [GQUAD];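 further: spheroids exposed to compounds for 7 days before readout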;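 on viability, T/C: percent of vehicle DMSO control viability with 100% = untreated-like growth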
Conditions: second compound 0.0316 µM; first compound 0.316 µM; stronger effect = lower value
experimental-endpoint: viability, T/C (%)
Field: numeric (%). Do not append units.

compound: C=CC(=O)N1CCN(c2nc(=O)n(-c3c(C)ccnc3C(C)C)c3nc(-c4c(O)cccc4F)c(F)cc23)C(C)C1 (stereo unspecified) + Cc1cnc(CNC(=O)c2c(=O)c3ccc(N4CCCN(C)CC4)nc3n3c2sc2ccccc23)cn1
obs-value: 115
--
compound: C#Cc1c(F)ccc2cc(O)cc(-c3ncc4c(N5CC6CCC(C5)N6)nc(OCC56CCCN5CC(F)C6)nc4c3F)c12 (stereo unspecified) + Cc1cnc(CNC(=O)c2c(=O)c3ccc(N4CCCN(C)CC4)nc3n3c2sc2ccccc23)cn1
obs-value: 122
--
compound: CC(C)(O)C1CCC(Nc2ccc3ncc(-c4cccc(C(F)(F)F)c4)n3n2)CC1 (stereo unspecified) + Cc1cnc(CNC(=O)c2c(=O)c3ccc(N4CCCN(C)CC4)nc3n3c2sc2ccccc23)cn1
obs-value: 93.2
--
compound: CC(C)(O)C1CCC(Nc2ccc3ncc(-c4cccc(C(F)(F)F)c4)n3n2)CC1 (stereo unspecified) + Cc1[nH]c2ccc(F)cc2c1-c1nc2c3cccnc3c3ncccc3c2[nH]1
obs-value: 114
--
compound: Cc1cccc(N(C)C(=O)C2C(O)CCN2c2nc(C)cc(C(F)(F)F)c2C#N)c1 (stereo unspecified) + CN(C)c1ccc(Nc2c3ccc(NC(=O)CCN4CCCC4)cc3nc3cc(NC(=O)CCN4CCCC4)ccc23)cc1
obs-value: 93.3
--
compound: COc1ccc([C@@H](O)c2cc(-c3ncnc4cc(N5CCOCC5)ccc34)c(F)cc2Cl)nn1 + Cc1[nH]c2ccc(F)cc2c1-c1nc2c3cccnc3c3ncccc3c2[nH]1
obs-value: 102

The compound identified as CC1COCCN1c1cc(C2(O)CC3CCC(C2)O3)c2cnn(-c3ccn[nH]3)c2n1 (stereo unspecified) + CN(C)c1ccc(Nc2c3ccc(NC(=O)CCN4CCCC4)cc3nc3cc(NC(=O)CCN4CCCC4)ccc23)cc1 registered its viability, T/C at 65.1

The compound identified as COc1ncnc(C2CC2)c1-c1ncc2cnn(Cc3ccc(-c4nc(C(F)(F)F)cn4C(C)C)cc3)c2n1 + Cc1cnc(CNC(=O)c2c(=O)c3ccc(N4CCCN(C)CC4)nc3n3c2sc2ccccc23)cn1 registered its viability, T/C at 119

The compound identified as CC(C)n1c(=O)n(C)c2cnc3cc(F)c(-c4ccc(OCCCN5CCCCC5)nc4)cc3c21 + Cc1cnc(CNC(=O)c2c(=O)c3ccc(N4CCCN(C)CC4)nc3n3c2sc2ccccc23)cn1 registered its viability, T/C at 102

The compound identified as Nc1ccn(C2OC(CO)C(O)C2(F)F)c(=O)n1 (stereo unspecified) + Cc1cnc(CNC(=O)c2c(=O)c3ccc(N4CCCN(C)CC4)nc3n3c2sc2ccccc23)cn1 registered its viability, T/C at 25.2

====

System: 282377-053-R-J1-PDC complex spheroids, viability
Assay: Anticancer human tumor 282377-053-R-J1-PDC cell line growth inhibition [GQUAD];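 further: spheroids exposed to compounds for 7 days before readout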
Details: curve of first compound; second compound 1 µM
Simple rule here: IC50 less than 50 nM is TRUE, otherwise FALSE.

Field: below-cutoff. Rule: recorded IC50 strictly less than 50 nM. Subject: COc1ccc([C@@H](O)c2cc(-c3ncnc4cc(N5CCOCC5)ccc34)c(F)cc2Cl)nn1 + Cc1cnc(CNC(=O)c2c(=O)c3ccc(N4CCCN(C)CC4)nc3n3c2sc2ccccc23)cn1
FALSE

====

Tested on: 282377-053-R-J1-PDC complex spheroids, viability
Assay: Anticancer human tumor 282377-053-R-J1-PDC cell line growth inhibition [GQUAD];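 further: spheroids exposed to compounds for 7 days before readout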;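 on viability, T/C: percent of vehicle DMSO control viability with 100% = untreated-like growth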
Conditions: second compound 10 µM; first compound 0.0316 µM; stronger effect = lower value
Simple rule here: viability, T/C less than 60% is Y, otherwise N.

Field: example entries. Status: answers known.
compound: CC[C@@]1(O)C(=O)OCc2c1cc1n(c2=O)Cc2cc3c(CN(C)C)c(O)ccc3nc2-1 + CN(C)c1ccc(Nc2c3ccc(NC(=O)CCN4CCCC4)cc3nc3cc(NC(=O)CCN4CCCC4)ccc23)cc1
group: N
--
compound: CCCS(=O)(=O)Nc1ccc(F)c(C(=O)c2c[nH]c3ncc(-c4ccc(Cl)cc4)cc23)c1F + Cc1[nH]c2ccc(F)cc2c1-c1nc2c3cccnc3c3ncccc3c2[nH]1
group: Y
--
compound: CC[C@@]1(O)C(=O)OCc2c1cc1n(c2=O)Cc2cc3c(CN(C)C)c(O)ccc3nc2-1 + Cc1[nH]c2ccc(F)cc2c1-c1nc2c3cccnc3c3ncccc3c2[nH]1
group: Y
--
compound: Nc1ccn(C2OC(CO)C(O)C2(F)F)c(=O)n1 (stereo unspecified) + Cc1cnc(CNC(=O)c2c(=O)c3ccc(N4CCCN(C)CC4)nc3n3c2sc2ccccc23)cn1
group: Y
--
compound: CC1COCCN1c1cc(-c2ccnn2C)c2ccnc(-c3ccn[nH]3)c2n1 (stereo unspecified) + CN(C)c1ccc(Nc2c3ccc(NC(=O)CCN4CCCC4)cc3nc3cc(NC(=O)CCN4CCCC4)ccc23)cc1
group: N

Field: below-cutoff. Rule: recorded viability, T/C strictly less than 60%. Subject: COc1ccc([C@@H](O)c2cc(-c3ncnc4cc(N5CCOCC5)ccc34)c(F)cc2Cl)nn1 + CN(C)c1ccc(Nc2c3ccc(NC(=O)CCN4CCCC4)cc3nc3cc(NC(=O)CCN4CCCC4)ccc23)cc1
N

====

Test system: 282377-053-R-J1-PDC complex spheroids, viability
Assay: Anticancer human tumor 282377-053-R-J1-PDC cell line growth inhibition [GQUAD];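 further: spheroids exposed to compounds for 7 days before readout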;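 on viability, T/C: percent of vehicle DMSO control viability with 100% = untreated-like growth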
Conditions: second compound 3.16 µM; first compound 0.000999 µM; stronger effect = lower value
experimental-endpoint: viability, T/C (%)
Field: numeric (%). Do not append units.

Past entries and their recorded results:
compound: CC[C@@]1(O)C(=O)OCc2c1cc1n(c2=O)Cc2cc3c(CN(C)C)c(O)ccc3nc2-1 + Cc1[nH]c2ccc(F)cc2c1-c1nc2c3cccnc3c3ncccc3c2[nH]1
obs-value: 77.8
//
compound: Cn1ncnc1[C@H]1c2n[nH]c(=O)c3cc(F)cc(c23)N[C@@H]1c1ccc(F)cc1 + CN(C)c1ccc(Nc2c3ccc(NC(=O)CCN4CCCC4)cc3nc3cc(NC(=O)CCN4CCCC4)ccc23)cc1
obs-value: 85.5

Form field viability, T/C for item Cn1ncnc1[C@H]1c2n[nH]c(=O)c3cc(F)cc(c23)N[C@@H]1c1ccc(F)cc1 + Cc1cnc(CNC(=O)c2c(=O)c3ccc(N4CCCN(C)CC4)nc3n3c2sc2ccccc23)cn1 on 282377-053-R-J1-PDC complex spheroids, viability: 56.6
